# Test target: L-lactate dehydrogenase A chain (Homo sapiens, UniProt P00338)
# Experimental protocol: Non-competitive inhibition of human LDHA assessed as reduction in lactate production using pyruvate as substrate in presence of NADH by Lineweaver-Burk plot analysis
pKi: −log10 of the molar value.
Readout kind: pKi

[[record]]
compound = "C=C(C)[C@@H]1CCC(C)=C[C@H]1c1c(O)cc(CCCCC)cc1O"
readout_kind = "pKi"
value_reported = 4.62

[[record]]
compound = "CCCCCc1cc(O)c2c(c1)OC(C)(CCC=C(C)C)C=C2 (centres undefined)"
readout_kind = "pKi"
value_reported = 5.07

[[record]]
compound = "CCCCCc1cc2c(c(O)c1C(=O)O)[C@@H]1C=C(C)CC[C@H]1C(C)(C)O2 [DELTA9-TETRAHYDROCANNABINOLIC ACID A]"
readout_kind = "pKi"
value_reported = 5.19

[[record]]
compound = "CCCCCc1cc(O)c2c(c1)OC(C)(C)[C@@H]1CCC(C)=C[C@@H]21"
readout_kind = "pKi"
value_reported = 4.85

